Hello, the source for this data is ChEMBL document CHEMBL4184253, in case you need it.

- targetOrTestSystem: DNA topoisomerase 2-alpha (Homo sapiens)
- protocol: Inhibition of human recombinant topoisomerase-2alpha assessed as inhibition of relaxation of supercoiled pBR322 plasmid DNA at 100 uM measured after 1 hr by ethidium bromide staining based agarose gel electrophoresis relative to control
# if value of inhibition reaches 50%, tag True; if it stays below, tag False

smilesCode | classLabel
Oc1ccc2c(c1)oc1c(-c3ccccc3O)cc(-c3ccccc3)nc12 | True
Oc1ccc(-c2cc(-c3ccc(O)cc3)c3oc4cc(O)ccc4c3n2)cc1 | True
Oc1ccc2c(c1)oc1c(-c3ccccc3O)cc(-c3ccccc3O)nc12 | False
Oc1cccc(-c2cc(-c3ccccc3O)nc3c2oc2cc(O)ccc23)c1 | True
Oc1cccc(-c2cc(-c3cccc(O)c3)c3oc4cc(O)ccc4c3n2)c1 | True
Oc1ccc(-c2cc(-c3ccccc3O)nc3c2oc2cc(O)ccc23)cc1 | True

* * *

- targetOrTestSystem: DNA topoisomerase 2-alpha (Homo sapiens)
- protocol: Inhibition of human recombinant topoisomerase-2alpha assessed as inhibition of relaxation of supercoiled pBR322 plasmid DNA at 100 uM measured after 1 hr by ethidium bromide staining based agarose gel electrophoresis relative to control etoposide
# if value of Ratio reaches 1, tag 1; if it stays below, tag 0

smilesCode | classLabel
Oc1ccc(-c2cc(-c3ccc(O)cc3)c3oc4cc(O)ccc4c3n2)cc1 | 1
Oc1ccc(-c2cc(-c3ccccc3O)c3oc4cc(O)ccc4c3n2)cc1 | 1
Oc1cccc(-c2cc(-c3ccccc3O)nc3c2oc2cc(O)ccc23)c1 | 1
Oc1ccc(-c2cc(-c3cccc(O)c3)c3oc4cc(O)ccc4c3n2)cc1 | 1
Oc1cccc(-c2cc(-c3ccccc3)c3oc4cc(O)ccc4c3n2)c1 | 0
Oc1ccc(-c2cc(-c3cccc(O)c3)nc3c2oc2cc(O)ccc23)cc1 | 0
Oc1ccc2c(c1)oc1c(-c3ccccc3)cc(-c3ccccc3O)nc12 | 1
Oc1cccc(-c2cc(-c3ccccc3O)c3oc4cc(O)ccc4c3n2)c1 | 0
Oc1ccc2c(c1)oc1c(-c3ccccc3O)cc(-c3ccccc3)nc12 | 0
Oc1ccc2c(c1)oc1c(-c3ccccc3O)cc(-c3ccccc3O)nc12 | 0
Oc1cccc(-c2cc(-c3cccc(O)c3)c3oc4cc(O)ccc4c3n2)c1 | 1
Oc1cccc(-c2cc(-c3ccccc3)nc3c2oc2cc(O)ccc23)c1 | 1
Oc1ccc(-c2cc(-c3ccccc3O)nc3c2oc2cc(O)ccc23)cc1 | 1

* * *

- targetOrTestSystem: DNA topoisomerase 1 (Homo sapiens)
- Sequence (whole entry): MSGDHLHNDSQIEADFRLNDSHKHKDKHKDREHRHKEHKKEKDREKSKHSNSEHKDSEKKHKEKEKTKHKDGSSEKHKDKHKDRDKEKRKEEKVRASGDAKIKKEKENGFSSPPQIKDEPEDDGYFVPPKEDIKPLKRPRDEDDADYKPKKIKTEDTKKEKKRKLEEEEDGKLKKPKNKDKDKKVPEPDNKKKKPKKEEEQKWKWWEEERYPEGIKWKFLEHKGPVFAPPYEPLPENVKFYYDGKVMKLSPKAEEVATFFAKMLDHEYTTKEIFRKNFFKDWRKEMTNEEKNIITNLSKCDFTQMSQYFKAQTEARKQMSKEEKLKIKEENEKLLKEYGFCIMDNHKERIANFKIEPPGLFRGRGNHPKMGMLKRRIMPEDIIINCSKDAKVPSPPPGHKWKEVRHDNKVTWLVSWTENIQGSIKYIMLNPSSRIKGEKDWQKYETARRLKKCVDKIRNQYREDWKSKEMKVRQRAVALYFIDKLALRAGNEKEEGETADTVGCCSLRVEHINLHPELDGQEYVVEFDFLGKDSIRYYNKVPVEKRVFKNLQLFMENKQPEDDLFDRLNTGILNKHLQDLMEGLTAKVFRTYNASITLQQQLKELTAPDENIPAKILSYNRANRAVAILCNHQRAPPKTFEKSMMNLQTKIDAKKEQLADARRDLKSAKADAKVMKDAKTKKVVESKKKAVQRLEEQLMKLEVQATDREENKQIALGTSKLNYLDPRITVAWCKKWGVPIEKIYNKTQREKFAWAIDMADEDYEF
- protocol: Inhibition of human recombinant topoisomerase-1 assessed as inhibition of relaxation of supercoiled pBR322 plasmid DNA at 100 uM measured after 1 hr by ethidium bromide staining based agarose gel electrophoresis relative to control

smilesCode | inhibition
Oc1ccc(-c2cc(-c3ccccc3)c3oc4cc(O)ccc4c3n2)cc1 | 43.9%
Oc1cccc(-c2cc(-c3ccccc3)nc3c2oc2cc(O)ccc23)c1 | 27.4%
Oc1ccc(-c2cc(-c3ccccc3O)nc3c2oc2cc(O)ccc23)cc1 | 39.9%
Oc1cccc(-c2cc(-c3ccccc3O)c3oc4cc(O)ccc4c3n2)c1 | 33.9%
Oc1cccc(-c2cc(-c3cccc(O)c3)c3oc4cc(O)ccc4c3n2)c1 | 22.4%
Oc1ccc(-c2cc(-c3ccc(O)cc3)c3oc4cc(O)ccc4c3n2)cc1 | 33.8%
Oc1ccc2c(c1)oc1c(-c3ccccc3O)cc(-c3ccccc3)nc12 | 14.2%
Oc1ccc(-c2cc(-c3cccc(O)c3)nc3c2oc2cc(O)ccc23)cc1 | 71.7%
Oc1ccc2c(c1)oc1c(-c3ccccc3)cc(-c3ccccc3)nc12 | 30.8%
Oc1cccc(-c2cc(-c3ccccc3)c3oc4cc(O)ccc4c3n2)c1 | 15.9%
Oc1cccc(-c2cc(-c3ccccc3O)nc3c2oc2cc(O)ccc23)c1 | 25.6%
Oc1ccc2c(c1)oc1c(-c3ccccc3)cc(-c3ccccc3O)nc12 | 18.2%
Oc1ccc2c(c1)oc1c(-c3ccccc3O)cc(-c3ccccc3O)nc12 | 30.1%
Oc1ccc(-c2cc(-c3ccccc3O)c3oc4cc(O)ccc4c3n2)cc1 | 3.3%
Oc1ccc(-c2cc(-c3ccccc3)nc3c2oc2cc(O)ccc23)cc1 | 30.3%
Oc1ccc(-c2cc(-c3cccc(O)c3)c3oc4cc(O)ccc4c3n2)cc1 | 66.3%

* * *

- targetOrTestSystem: DNA topoisomerase 2-alpha (Homo sapiens) (UniProt P11388)
- Sequence (P11388 whole entry): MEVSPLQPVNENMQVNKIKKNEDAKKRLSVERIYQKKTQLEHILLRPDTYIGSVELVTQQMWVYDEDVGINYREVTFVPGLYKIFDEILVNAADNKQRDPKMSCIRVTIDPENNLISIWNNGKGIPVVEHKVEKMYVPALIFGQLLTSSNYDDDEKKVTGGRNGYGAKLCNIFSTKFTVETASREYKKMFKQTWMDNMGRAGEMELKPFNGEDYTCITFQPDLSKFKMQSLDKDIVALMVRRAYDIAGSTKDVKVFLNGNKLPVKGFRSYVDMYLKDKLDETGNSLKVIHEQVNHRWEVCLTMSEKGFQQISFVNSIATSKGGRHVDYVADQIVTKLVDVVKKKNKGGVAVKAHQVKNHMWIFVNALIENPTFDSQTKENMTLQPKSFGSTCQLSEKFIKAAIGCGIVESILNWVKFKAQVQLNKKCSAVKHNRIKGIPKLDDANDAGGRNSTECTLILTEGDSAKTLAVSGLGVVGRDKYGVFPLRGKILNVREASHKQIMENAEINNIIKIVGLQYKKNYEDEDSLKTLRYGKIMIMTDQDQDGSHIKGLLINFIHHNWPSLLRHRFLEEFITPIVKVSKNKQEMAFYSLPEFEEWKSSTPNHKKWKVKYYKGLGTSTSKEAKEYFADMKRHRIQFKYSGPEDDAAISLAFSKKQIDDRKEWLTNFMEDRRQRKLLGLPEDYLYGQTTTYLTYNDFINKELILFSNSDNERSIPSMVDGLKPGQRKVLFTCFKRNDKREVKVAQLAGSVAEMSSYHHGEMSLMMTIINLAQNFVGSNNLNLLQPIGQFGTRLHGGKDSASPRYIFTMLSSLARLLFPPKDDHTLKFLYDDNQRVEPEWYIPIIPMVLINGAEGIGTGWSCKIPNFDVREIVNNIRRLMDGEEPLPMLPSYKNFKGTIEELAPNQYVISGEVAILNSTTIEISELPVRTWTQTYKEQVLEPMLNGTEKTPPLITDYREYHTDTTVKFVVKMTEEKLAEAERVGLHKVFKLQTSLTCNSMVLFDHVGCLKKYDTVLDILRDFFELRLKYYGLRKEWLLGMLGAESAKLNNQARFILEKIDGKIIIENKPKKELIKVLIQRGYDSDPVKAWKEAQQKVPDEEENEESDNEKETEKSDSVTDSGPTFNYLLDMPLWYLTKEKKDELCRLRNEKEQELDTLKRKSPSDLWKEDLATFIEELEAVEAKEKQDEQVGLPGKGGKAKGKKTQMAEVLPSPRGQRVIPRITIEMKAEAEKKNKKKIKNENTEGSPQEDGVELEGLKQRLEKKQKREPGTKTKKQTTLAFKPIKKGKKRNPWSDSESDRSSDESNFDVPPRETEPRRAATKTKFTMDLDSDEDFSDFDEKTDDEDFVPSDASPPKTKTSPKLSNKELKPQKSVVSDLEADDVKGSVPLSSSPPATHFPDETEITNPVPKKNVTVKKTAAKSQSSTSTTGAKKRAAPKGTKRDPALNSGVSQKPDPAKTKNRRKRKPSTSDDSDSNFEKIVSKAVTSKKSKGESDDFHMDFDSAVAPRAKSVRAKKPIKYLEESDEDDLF
- protocol: Inhibition of human recombinant topoisomerase-2alpha assessed as inhibition of relaxation of supercoiled pBR322 plasmid DNA at 20 uM measured after 1 hr by ethidium bromide staining based agarose gel electrophoresis relative to control
observedProperty: inhibition (%)

smilesCode | targetOrTestSystem | numericValue
Oc1ccc(-c2cc(-c3cccc(O)c3)c3oc4cc(O)ccc4c3n2)cc1 | DNA topoisomerase 2-alpha (Homo sapiens) (UniProt P11388) | 55.1
Oc1ccc(-c2cc(-c3ccccc3O)nc3c2oc2cc(O)ccc23)cc1 | DNA topoisomerase 2-alpha (Homo sapiens) (UniProt P11388) | 70.8
Oc1ccc2c(c1)oc1c(-c3ccccc3O)cc(-c3ccccc3O)nc12 | DNA topoisomerase 2-alpha (Homo sapiens) (UniProt P11388) | 38
Oc1ccc(-c2cc(-c3ccc(O)cc3)c3oc4cc(O)ccc4c3n2)cc1 | DNA topoisomerase 2-alpha (Homo sapiens) (UniProt P11388) | 65.9
Oc1ccc(-c2cc(-c3ccccc3)c3oc4cc(O)ccc4c3n2)cc1 | DNA topoisomerase 2-alpha (Homo sapiens) (UniProt P11388) | 72.2
Oc1ccc(-c2cc(-c3cccc(O)c3)nc3c2oc2cc(O)ccc23)cc1 | DNA topoisomerase 2-alpha (Homo sapiens) (UniProt P11388) | 45.1
Oc1cccc(-c2cc(-c3ccccc3)nc3c2oc2cc(O)ccc23)c1 | DNA topoisomerase 2-alpha (Homo sapiens) (UniProt P11388) | 41.9
Oc1cccc(-c2cc(-c3ccccc3O)c3oc4cc(O)ccc4c3n2)c1 | DNA topoisomerase 2-alpha (Homo sapiens) (UniProt P11388) | 12
Oc1ccc2c(c1)oc1c(-c3ccccc3)cc(-c3ccccc3O)nc12 | DNA topoisomerase 2-alpha (Homo sapiens) (UniProt P11388) | 52.6
Oc1ccc(-c2cc(-c3ccccc3O)c3oc4cc(O)ccc4c3n2)cc1 | DNA topoisomerase 2-alpha (Homo sapiens) (UniProt P11388) | 29
Oc1cccc(-c2cc(-c3ccccc3O)nc3c2oc2cc(O)ccc23)c1 | DNA topoisomerase 2-alpha (Homo sapiens) (UniProt P11388) | 76
Oc1cccc(-c2cc(-c3cccc(O)c3)c3oc4cc(O)ccc4c3n2)c1 | DNA topoisomerase 2-alpha (Homo sapiens) (UniProt P11388) | 74.1
Oc1cccc(-c2cc(-c3ccccc3)c3oc4cc(O)ccc4c3n2)c1 | DNA topoisomerase 2-alpha (Homo sapiens) (UniProt P11388) | 32.5
Oc1ccc2c(c1)oc1c(-c3ccccc3O)cc(-c3ccccc3)nc12 | DNA topoisomerase 2-alpha (Homo sapiens) (UniProt P11388) | 19.1

* * *

- targetOrTestSystem: UniProtKB P11388
- protocol: Inhibition of human recombinant topoisomerase-2alpha assessed as inhibition of relaxation of supercoiled pBR322 plasmid DNA at 100 uM measured after 1 hr by ethidium bromide staining based agarose gel electrophoresis relative to control

smilesCode | targetOrTestSystem | inhibition, %
Oc1ccc(-c2cc(-c3ccccc3O)c3oc4cc(O)ccc4c3n2)cc1 | UniProtKB P11388 | 87.3
Oc1ccc(-c2cc(-c3cccc(O)c3)nc3c2oc2cc(O)ccc23)cc1 | UniProtKB P11388 | 58.4
Oc1ccc(-c2cc(-c3ccccc3)nc3c2oc2cc(O)ccc23)cc1 | UniProtKB P11388 | 0.4
Oc1cccc(-c2cc(-c3ccccc3)c3oc4cc(O)ccc4c3n2)c1 | UniProtKB P11388 | 46.3
Oc1ccc2c(c1)oc1c(-c3ccccc3)cc(-c3ccccc3O)nc12 | UniProtKB P11388 | 83.1
Oc1cccc(-c2cc(-c3ccccc3O)c3oc4cc(O)ccc4c3n2)c1 | UniProtKB P11388 | 63
Oc1ccc(-c2cc(-c3ccccc3)c3oc4cc(O)ccc4c3n2)cc1 | UniProtKB P11388 | 78.4
Oc1cccc(-c2cc(-c3ccccc3)nc3c2oc2cc(O)ccc23)c1 | UniProtKB P11388 | 98
Oc1ccc(-c2cc(-c3cccc(O)c3)c3oc4cc(O)ccc4c3n2)cc1 | UniProtKB P11388 | 66.1
Oc1ccc2c(c1)oc1c(-c3ccccc3)cc(-c3ccccc3)nc12 | UniProtKB P11388 | 18.3
